Measured values drawn from the Human Domainome abundance scans (Beltran et al. 2025) for this set.

B1: Triacylglycerol hydrolase DDHD2, residues 389 to 447; numbered along this chain, O94830 (parent)
chain: TLEEDLKKLQLSEFFDIFEKEKVDKEALALCTDRDLQEIGIPLGPRKKILNYFSTRKNS

variants of: B1; assay: abundance fitness (aPCA) (normalised: wild type 0, dead -1); higher = more abundant; growth selection in yeast, the domain comes from the species named; settings: Homo sapiens
Everything with abundance fitness lower than -0.2 is class 0; everything else, including exactly -0.2, is class 1.

Query: Is it the case that T1N has abundance fitness reaching or exceeding -0.2?
Result: class 1

Query: Is it the case that F15W has abundance fitness reaching or exceeding -0.2?
Result: class 0

Query: Is it the case that E19G has abundance fitness reaching or exceeding -0.2?
Result: class 0

Query: Is it the case that F53Q has abundance fitness reaching or exceeding -0.2?
Result: class 1

Query: Is it the case that Y52A has abundance fitness reaching or exceeding -0.2?
Result: class 1

Query: Is it the case that D33T has abundance fitness reaching or exceeding -0.2?
Result: class 0

Query: Is it the case that N58Q has abundance fitness reaching or exceeding -0.2?
Result: class 0
